target: cIAP-1 BIR-3 (Homo sapiens, UniProt Q13490); assay: Fluorescence polarization binding affinity to cIAP-1 BIR-3 (competition with AbuRPF-K(5-Fam)-NH2); settings: 5 nM labeled peptide, 40 nM BIR3, 15 min at RT, pH 7.5; reported as ranges; read-out: KD (c-IAP-1 BIR3)
Sequence (Q13490 266-352 limits assumed): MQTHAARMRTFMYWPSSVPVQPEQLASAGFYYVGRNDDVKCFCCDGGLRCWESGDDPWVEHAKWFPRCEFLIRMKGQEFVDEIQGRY
Listing of entries alongside the reported Kd.
property.name: Kd

- CN[C@@H](C)C(=O)N[C@H](C(=O)N1CC[C@@H]2[C@H]1[C@@H](c1c[nH]c3cc(F)ccc13)CN2C(C)=O)C1CCCCC1: < 100 nM
- CN[C@@H](C)C(=O)N[C@H](C(=O)N1CC[C@@H]2[C@H]1[C@@H](c1c[nH]c3cc(F)ccc13)CN2C(C)=O)C(C)C: < 100 nM
- CN[C@@H](C)C(=O)N[C@H](C(=O)N1CC[C@@H]2[C@H]1[C@@H](c1c[nH]c3cc(F)ccc13)CN2C(=O)C1CC1)C1CCCCC1: < 100 nM
- CN[C@@H](C)C(=O)N[C@H](C(=O)N1CC[C@@H]2[C@H]1[C@@H](c1c[nH]c3cc(F)ccc13)CN2c1ncccn1)[C@@H](C)O: < 100 nM
- CC[C@H](NC(=O)[C@H](C)NC)C(=O)N1CC[C@@H]2[C@H]1[C@H](c1c[nH]c3cc(F)ccc13)CN2C1CCCC1: 100 to 1000 nM
- CN[C@@H](C)C(=O)N[C@H](C(=O)N1CC[C@H]2NC[C@H](c3c[nH]c4cc(F)ccc34)[C@H]21)[C@@H](C)OC: < 100 nM
- CN[C@@H](C)C(=O)N[C@H](C(=O)N1CC[C@@H]2[C@H]1[C@@H](c1c[nH]c3cc(F)ccc13)CN2Cc1ccccc1)C(C)(C)C: < 100 nM
- CN[C@@H](C)C(=O)N[C@H](C(=O)N1CC[C@@H]2[C@H]1[C@@H](c1c[nH]c3cc(F)ccc13)CN2C1CCCCC1)C1CCCCC1: < 100 nM
- CN[C@@H](C)C(=O)N[C@H](C(=O)N1CC[C@@H]2[C@H]1[C@@H](c1c[nH]c3ccc(F)cc13)CN2C(C)=O)[C@@H](C)OC: < 100 nM
- C[C@H](N)C(=O)N[C@H](C(=O)N1CC[C@H]2NC[C@H](c3c[nH]c4cc(F)ccc34)[C@H]21)C1CCCCC1: < 100 nM
- CC[C@H](NC(=O)[C@H](C)NC)C(=O)N1CC[C@@H]2[C@H]1[C@@H](c1c[nH]c3cc(F)ccc13)CN2S(C)(=O)=O: < 100 nM
- CNC(C)C(=O)NC(C(=O)N1CCC2C1CCN2C(=O)C(NC(=O)C(C)NC)C1CCCCC1)C1CCCCC1 (centres unmarked): < 100 nM
- CN[C@@H](C)C(=O)N[C@H](C(=O)N1CC[C@@H]2[C@H]1[C@H](c1c[nH]c3cc(F)ccc13)CN2C1CCCC1)[C@@H](C)O: 100 to 1000 nM
- CN[C@@H](C)C(=O)N[C@@H](CO)C(=O)N1CC[C@@H]2[C@H]1[C@@H](c1c[nH]c3cc(F)ccc13)CN2Cc1ccccc1: 100 to 1000 nM
- CN[C@@H](C)C(=O)N[C@@H](COC)C(=O)N1CC[C@@H]2[C@H]1[C@@H](c1c[nH]c3cc(F)ccc13)CN2S(C)(=O)=O: < 100 nM
- CN[C@@H](C)C(=O)N[C@H](C(=O)N1CC[C@@H]2[C@H]1[C@@H](c1c[nH]c3cc(F)ccc13)CN2C1CCNCC1)C1CCCCC1: < 100 nM
- CN[C@@H](C)C(=O)N[C@H](C(=O)N1CC[C@@H]2[C@H]1[C@@H](c1c[nH]c3cc(F)ccc13)CN2c1ncccn1)C(C)(C)C: < 100 nM
- CN[C@@H](C)C(=O)N[C@@H](CO)C(=O)N1CC[C@@H]2[C@H]1[C@H](c1c[nH]c3cc(F)ccc13)CN2C1CCCC1: 100 to 1000 nM
- CN[C@@H](C)C(=O)N[C@H](C(=O)N1CC[C@@H]2[C@H]1[C@@H](c1c[nH]c3cc(F)ccc13)CN2Cc1ncc(C)s1)C1CCCCC1: < 100 nM
- CN[C@@H](C)C(=O)N[C@H](C(=O)N1CC[C@@H]2[C@H]1[C@@H](c1c[nH]c3cc(F)ccc13)CN2Cc1ccncc1)C1CCCCC1: < 100 nM
- CN[C@@H](C)C(=O)N[C@H](C(=O)N1CC[C@H]2NC[C@H](c3c[nH]c4cc(F)ccc34)[C@H]21)C1CCCCC1: < 100 nM
- CN[C@@H](C)C(=O)N[C@H](C(=O)N1CC[C@@H]2[C@H]1[C@H](c1c[nH]c3cc(F)ccc13)CN2S(C)(=O)=O)[C@@H](C)O: 1000 to 10000 nM
- CN[C@@H](C)C(=O)N[C@H](C(=O)N1CC[C@@H]2[C@H]1[C@@H](c1c[nH]c3cc(F)ccc13)CN2C(C)=O)[C@@H](C)O: < 100 nM
